This collection of values is drawn from patent US20250179059A1.

# System: human SKM-1 acute myeloid leukemia cells
# PROCEDURE_SUMMARY: SKM-1 antiproliferation cell-based assay (ATPlite)
# RUN_CONDITIONS: Homo sapiens, SKM-1, 96 h, SKM-1 antiproliferation assay, 4 days, Table C2
METRIC: GI50

Sample answers from the record:
Cc1cc(-c2cc(-c3ccn[nH]3)cc(N3CCNCC3)c2)c(O)c(-c2ccc(-n3ccn(C)c3=O)c(Cl)c2)c1
30 to 300 nM
CN1CCN(c2ccc(-c3cccc(-c4cncc(N5CC6(CNC6)C5)c4)c3O)cc2F)C1=O
300 to 3000 nM
CN1CCN(c2ccc(-c3cc(C#N)cc(-c4ccnc(N5CCNCC5)c4)c3O)cc2Cl)C1=O
≥ 3000 nM

Now for another entry.
Which GI50 value belongs to Cn1ccn(-c2ccc(-c3cc(F)cc(-c4ccnc(N5CCC[C@H](N)C5)c4)c3O)cc2Cl)c1=O ?
0.3 to 30 nM
